Target: human Nav1.7 (Homo sapiens)
Construct: expressed in transfected cells; host or cells: HEK293
Sequence (Q15858 whole entry): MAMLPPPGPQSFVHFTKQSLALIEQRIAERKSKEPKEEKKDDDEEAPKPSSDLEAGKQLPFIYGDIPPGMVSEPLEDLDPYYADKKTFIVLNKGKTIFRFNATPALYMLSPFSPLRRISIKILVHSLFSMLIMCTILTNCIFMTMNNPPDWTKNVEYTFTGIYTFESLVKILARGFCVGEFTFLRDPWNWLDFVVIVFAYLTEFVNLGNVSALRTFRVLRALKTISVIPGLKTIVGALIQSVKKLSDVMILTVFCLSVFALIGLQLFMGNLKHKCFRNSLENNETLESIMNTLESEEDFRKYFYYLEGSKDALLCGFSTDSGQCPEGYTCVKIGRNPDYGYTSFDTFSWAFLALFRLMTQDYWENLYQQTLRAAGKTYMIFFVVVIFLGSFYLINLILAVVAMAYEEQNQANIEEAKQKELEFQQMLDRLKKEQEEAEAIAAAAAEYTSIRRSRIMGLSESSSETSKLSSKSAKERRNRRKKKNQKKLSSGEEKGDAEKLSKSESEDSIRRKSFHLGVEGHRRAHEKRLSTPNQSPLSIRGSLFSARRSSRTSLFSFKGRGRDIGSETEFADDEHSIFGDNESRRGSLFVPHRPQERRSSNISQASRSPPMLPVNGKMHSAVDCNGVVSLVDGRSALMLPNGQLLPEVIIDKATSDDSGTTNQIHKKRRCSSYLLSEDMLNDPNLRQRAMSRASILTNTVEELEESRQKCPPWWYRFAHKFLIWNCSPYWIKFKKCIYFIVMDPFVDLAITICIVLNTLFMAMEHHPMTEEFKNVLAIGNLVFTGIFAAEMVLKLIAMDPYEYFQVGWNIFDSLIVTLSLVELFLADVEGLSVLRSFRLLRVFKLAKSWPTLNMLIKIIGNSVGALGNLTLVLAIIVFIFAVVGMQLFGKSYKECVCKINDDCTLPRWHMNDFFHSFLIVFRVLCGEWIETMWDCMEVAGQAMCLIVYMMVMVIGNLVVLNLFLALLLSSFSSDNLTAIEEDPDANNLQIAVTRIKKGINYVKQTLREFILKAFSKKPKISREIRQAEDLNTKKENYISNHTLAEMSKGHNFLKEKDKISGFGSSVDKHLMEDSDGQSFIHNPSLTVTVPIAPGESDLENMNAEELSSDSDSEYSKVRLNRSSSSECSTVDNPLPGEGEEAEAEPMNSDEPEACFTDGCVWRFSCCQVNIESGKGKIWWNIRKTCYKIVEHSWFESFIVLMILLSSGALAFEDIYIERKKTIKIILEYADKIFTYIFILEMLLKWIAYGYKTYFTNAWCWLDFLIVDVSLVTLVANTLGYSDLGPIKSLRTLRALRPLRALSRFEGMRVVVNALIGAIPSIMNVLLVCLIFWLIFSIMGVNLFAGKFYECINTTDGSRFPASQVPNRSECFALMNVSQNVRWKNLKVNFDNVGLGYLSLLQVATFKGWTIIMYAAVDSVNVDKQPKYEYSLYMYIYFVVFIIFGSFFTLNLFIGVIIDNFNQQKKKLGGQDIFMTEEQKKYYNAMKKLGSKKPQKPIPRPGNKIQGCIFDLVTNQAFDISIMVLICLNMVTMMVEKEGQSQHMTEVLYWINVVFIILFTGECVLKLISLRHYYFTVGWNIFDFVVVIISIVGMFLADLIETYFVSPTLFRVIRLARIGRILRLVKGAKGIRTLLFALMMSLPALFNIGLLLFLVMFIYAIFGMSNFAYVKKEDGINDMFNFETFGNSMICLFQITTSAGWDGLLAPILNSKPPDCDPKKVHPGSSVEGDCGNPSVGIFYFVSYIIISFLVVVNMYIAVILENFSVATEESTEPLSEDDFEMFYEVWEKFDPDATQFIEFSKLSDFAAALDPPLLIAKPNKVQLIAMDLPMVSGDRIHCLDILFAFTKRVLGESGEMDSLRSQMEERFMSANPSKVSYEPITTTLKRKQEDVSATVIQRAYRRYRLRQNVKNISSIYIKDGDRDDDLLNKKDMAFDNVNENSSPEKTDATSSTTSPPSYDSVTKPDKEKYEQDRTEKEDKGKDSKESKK
Assay: Nav 1.7 IWB In Vitro Assay (IonWorks Barracuda)
Type: cell-based
Settings: HEK293 cells stably transfected with human Nav 1.7; IonWorks Barracuda population patch-clamp; cells clamped to −20 mV for 4 minutes with compound; 26th pulse; read-out: hNav1.7 IWB IC50
Measurement Name: IC50 (µM)

Here's what some known entries look like.
compound=COc1cc(-c2cc(C)ccc2Cl)c(F)cc1-n1c2c(ccc1=O)CN(S(=O)(=O)Nc1cccnn1)CC2 measurement_name=IC50 test_value=0.0038
compound="COc1cc(C#CC2CCCC2)c(F)cc1-n1c2c(ccc1=O)CN(S(=O)(=O)Nc1ccon1)CC2 (single isomer, unassigned) [Example 34-M]" measurement_name=IC50 test_value=9.72
compound=COc1cc(-c2cc(Cl)cnc2OC)c(F)cc1-n1c2c(ccc1=O)CN(S(=O)(=O)Nc1cccnn1)CC2 measurement_name=IC50 test_value=0.0375

I. COc1cc(-c2ccc(F)c(F)c2)c(F)cc1-n1c2c(ccc1=O)CN(S(=O)(=O)Nc1cccnn1)CC2 (racemic) [Example 32-(Rac)]
II. COc1cc(-c2cc(Cl)ccc2C)c(F)cc1-n1c2c(ccc1=O)CN(S(=O)(=O)Nc1ccon1)CC2 (single isomer, unassigned) [Example 9-M]
Q: Of the two listed items, I and II , which carries the larger IC50 figure? Kindly state the label of the option you pick.
A: II
(II: 0.055 µM, I: 0.0305 µM)

1. COc1cc(-c2cc(Cl)ccc2C)c(F)cc1-n1c2c(ccc1=O)CN(S(=O)(=O)Nc1ccon1)CC2 (racemic) [9-(Rac)]
2. COc1cc(-c2cc(F)cc(Cl)c2)c(F)cc1-n1c2c(ccc1=O)CN(S(=O)(=O)Nc1ccc(F)cn1)CC2 (racemic) [Example 12-(Rac)]
3. COc1cc(CCC(F)(F)F)c(Cl)cc1-n1c2c(ccc1=O)CN(S(=O)(=O)Nc1cccnn1)CC2 (single isomer, unassigned) [Example 96-M]
4. COc1cc(-c2ccc(F)c(F)c2)c(F)cc1-n1c2c(ccc1=O)CN(S(=O)(=O)Nc1ccon1)CC2 (single isomer, unassigned) [Example 20-P]
Q: Please list these compounds in decreasing order of IC50. # output: labels, in the requested order
A: 3, 2, 4, 1

I. COc1cc(Br)c(F)cc1-n1c2c(ccc1=O)CN(S(=O)(=O)Nc1cccnn1)CC2 (racemic)
II. COc1cc(-c2cc(OC)c(-n3c4c(ccc3=O)CN(S(=O)(=O)Nc3ccon3)CC4)cc2Cl)ccc1Cl
Q: Looking at recorded values for IC50, does I or II come in lower? Kindly state the label of the option you pick.
A: II
(II: 0.0028 µM, I: 1.12 µM)

Data provenance: patent US10472356B2
